Target: human GPR120 (Homo sapiens)
Construct: host or cells: HEK293 cells co-expressing Gqi5
Experiment: Intracellular Ca2+ assay in human GPR120 stable cell line (FLIPR Calcium 4 dye, Flexstation)
Assay type: cell-based
Conditions: HEK293, % activity at 2.5 µM compared to the maximal activity of the compound of Example 25 at 2.5 µM (=100%); HEK293 cells co-expressing Gqi5; read-out: % Activity (Ex. 25 Reference Compound)
PROPERTY_NAME: activity at 2.5 µM (%)

[P] CC(Cc1ccc(NC(=O)c2cc(F)cc3c2OC(C)(C)C3)cc1)C(=O)O (stereo not drawn) [Example 68]
[Q] CC(C)Oc1ccc(Cl)cc1COc1ccc2c(c1)CCC2CC(=O)O (stereo not drawn) [Example 258]
Task item: # returns the entry with the larger activity at 2.5 µM; inputs P and Q Give the label under which the chosen entry appears.
Reply: Q

###

Test system: C57BL/6J mice
Experiment: Intra peritoneal glucose tolerance test (IPGTT)
Type: in vivo
Settings: Mus musculus, 2 h; 30 mg/kg oral gavage 30 min before 2g/kg glucose intra peritoneally; overnight fasted male C57BL/6J mice; incremental AUC of glucose excursion vs vehicle; read-out: % reduction IPGTT at 30mg/kg
PROPERTY_NAME: inhibition in vivo at 30 mg/kg (%)
Number only, in %; omit the unit.

> print(dat)
                                   molecule                   property.name  readout.value
1  CC(Cc1ccc(OCc2cc(F)cc3c2OC(C)(C)C3)cc1)C(=O)O (stereo not drawn)  inhibition in vivo at 30 mg/kg           19.4
2  CCc1cc(OCc2cc(F)cc3c2OC(C)(C)C3)ccc1CCC(=O)O  inhibition in vivo at 30 mg/kg           30.2
3  C[C@H](Cc1ccc(OCc2cc(Cl)cc3c2OC(C)(C)C3)c(F)c1)C(=O)O  inhibition in vivo at 30 mg/kg           30.6
4  Cc1c(CCC(=O)O)ccc(OCc2cc(Cl)cc3c2OC(C)(C)C3)c1C  inhibition in vivo at 30 mg/kg           43.6
5  CC(Cc1ccc(OCc2cc(Cl)cc3c2OC(C)(C)C3)c(C(F)(F)F)c1)C(=O)O (stereo not drawn)  inhibition in vivo at 30 mg/kg           19.8

Task item: Query: inhibition in vivo at 30 mg/kg; subject: C[C@@H](Cc1ccc(OCc2cc(Cl)cc3c2OC(C)(C)C3)c(F)c1)C(=O)O
Reply: 36.2

###

Molecular target: human GPR120 (Homo sapiens)
Sequence (Q5NUL3 1-361): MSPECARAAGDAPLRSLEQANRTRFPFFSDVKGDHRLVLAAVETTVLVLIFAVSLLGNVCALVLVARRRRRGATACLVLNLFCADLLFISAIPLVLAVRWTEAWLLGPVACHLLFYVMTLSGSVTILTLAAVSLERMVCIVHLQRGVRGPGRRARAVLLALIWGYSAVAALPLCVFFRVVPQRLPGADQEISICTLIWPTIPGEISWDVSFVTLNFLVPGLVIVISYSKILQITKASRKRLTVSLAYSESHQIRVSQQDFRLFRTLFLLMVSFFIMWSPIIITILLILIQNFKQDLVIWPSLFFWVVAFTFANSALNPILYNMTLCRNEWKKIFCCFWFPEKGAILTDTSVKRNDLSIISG
Test: Intracellular Ca2+ assay in human GPR120 stable cell line (FLIPR Calcium 4 dye, Flexstation)
Conditions: eight concentrations from 0.00001 to 20 µM; changes (Max-Min) of fluorescence intensity
PROPERTY_NAME: EC50

> print(dat)
                                   compound                 assay.target     readout.value
1  CC(CCc1ccc(OCc2cc(Cl)cc3c2OC(C)(C)C3)cc1)C(=O)O (centres unmarked) [Example 172]  human GPR120 (Homo sapiens)         ≤ 1000 nM
2  CC(Cc1ccc(COc2cccc3c2OC(C)(C)C3)c(F)c1)C(=O)O (centres unmarked) [Example 44]  human GPR120 (Homo sapiens)  1000 to 10000 nM
3  CC(Cc1ccc(OCc2cc(OC(F)(F)F)cc3c2OC(C)(C)C3)cc1)C(=O)O (centres unmarked) [Example 124]  human GPR120 (Homo sapiens)         ≤ 1000 nM
4  CC(Cc1cccc(OCc2cc(Cl)cc3c2OC(C)(C)C3)c1)C(=O)O (centres unmarked) [Example 251]  human GPR120 (Homo sapiens)  1000 to 10000 nM

Task item: Query: EC50; subject: CC(Cc1ccc(OCc2cc(Cl)cc3c2OC(C)(C)C3O)cc1)C(=O)O (centres unmarked) [Example 130]
Reply: 1000 to 10000 nM

###

Biological target: human GPR120 (Homo sapiens, UniProt Q5NUL3)
Construct: host or cells: HEK293 cells co-expressing Gqi5
Test: Intracellular Ca2+ assay in human GPR120 stable cell line (FLIPR Calcium 4 dye, Flexstation)
Type: cell-based
Conditions: HEK293, % activity at 2.5 µM compared to the maximal activity of the compound of Example 25 at 2.5 µM (=100%); HEK293 cells co-expressing Gqi5; read-out: % Activity (Ex. 25 Reference Compound)
PROPERTY_NAME: activity at 2.5 µM (%)

Consider the worked cases shown below.
> print(dat)
                                   compound                              assay.target  unit.name  readout.value
1  CC1(C)Cc2cc(F)cc(COc3ccc(CCC(=O)O)c4c3CCC4)c2O1  human GPR120 (Homo sapiens, UniProt Q5NUL3)          %             95
2  CC1(C)Cc2cc(F)cc(COc3ccc(CCC(=O)O)c(OC(F)(F)F)c3)c2O1  human GPR120 (Homo sapiens, UniProt Q5NUL3)          %            141
3  Cc1cc(OCc2cc(F)cc3c2OC(C)(C)C3)ccc1CCC(=O)O  human GPR120 (Homo sapiens, UniProt Q5NUL3)          %            114
4  CCc1cc(OCc2cc(F)cc3c2OC(C)(C)C3)c(F)cc1CCC(=O)O  human GPR120 (Homo sapiens, UniProt Q5NUL3)          %            116
5  CC(Cc1ccc(OCc2cc(F)cc3c2OC(C)(C)C3)cc1)C(=O)NO (centres unmarked)  human GPR120 (Homo sapiens, UniProt Q5NUL3)          %            110

[A] Cc1cc(OCc2cc(F)cc3c2OC(C)(C)C3)c(F)cc1CCC(=O)O
[B] CC1(C)Cc2cc(F)cc(COc3ccc4c(CC(=O)O)cc(=O)oc4c3)c2O1
[C] CC(CC(=O)O)Cc1ccc(OCc2cc(F)cc3c2OC(C)(C)C3)cc1 (centres unmarked)
[D] CC(C)C(CC(=O)O)c1ccc(OCc2cc(Cl)cc3c2OC(C)(C)C3)cc1 (centres unmarked)
Task item: // ascending sort on recorded activity at 2.5 µM Give the labels in the order requested.
Reply: B, D, C, A
(B: 5.98%, D: 42.7%, C: 98.4%, A: 143%)

###

Molecular target: human GPR120 (Homo sapiens, UniProt Q5NUL3)
Construct: host or cells: HEK293 cells co-expressing Gqi5
Assay: Intracellular Ca2+ assay in human GPR120 stable cell line (FLIPR Calcium 4 dye, Flexstation)
Format: cell-based
Conditions: HEK293, % activity at 2.5 µM compared to the maximal activity of the compound of Example 25 at 2.5 µM (=100%); HEK293 cells co-expressing Gqi5; read-out: % Activity (Ex. 25 Reference Compound)
PROPERTY_NAME: activity at 2.5 µM (%)

> print(dat)
                                   molecule  readout.value
1  [2H]C1([2H])c2cc(Cl)cc(COc3ccc(CC(C)C(=O)O)cc3F)c2OC1(C)C (centres unmarked)            141
2  Cc1c(CCC(=O)O)ccc(OCc2cc(F)cc3c2OC(C)(C)C3)c1C            147
3  CC(Cc1ccc(NCc2cc(F)cc3c2OC(C)(C)C3)cc1)C(=O)O (centres unmarked)            142

[a] CC1(C)Cc2cc(Cl)cc(COc3ccc4c(c3)CC[C@H]4CC(=O)O)c2O1
[b] CC(Cc1ccc(OCc2cc(Cl)cc3c2OC(C)(C)C3O)c(F)c1)C(=O)O (centres unmarked)
Task item: # returns the entry with the larger activity at 2.5 µM; inputs a and b Give the label under which the chosen entry appears.
Reply: a
